- Test system: CEM-SS
- assay-explanation: Growth inhibition of human CEM-SS cells
- Format: cell-based
quantity-name: IC50

**Query** Using known records, supply IC50 for CCCCCCCCCCCCCCCCCCOC[C@H](COP(=O)(O)C(=O)O)OP(=O)(O)OC[C@H]1O[C@@H](n2cc(C)c(=O)[nH]c2=O)C[C@@H]1N=[N+]=[N-]
**Result** 92.7 µM

----------
- System: Human alphaherpesvirus 1
- assay-explanation: Antiviral activity against acyclovir-resistant HSV1 L182 isolate replication in african green monkey Vero cells by plaque reduction assay
- Type: functional, organism-based
- experimental-setup: Human alphaherpesvirus 1, Vero
quantity-name: pIC50
To interpret pIC50, take it as minus log10 of a concentration measured in moles per litre.

compound-structure: O=C(O)P(=O)(O)O
data-value: 4.34

compound-structure: Nc1nc2c(ncn2COCCO)c(=O)[nH]1
data-value: 5.02

Kindly review the next compound as well.
**Query** Using known records, supply pIC50 for CCCCCCCCCCCCCCCCCCOC[C@H](COP(=O)(O)C(=O)O)OP(=O)(O)OC[C@H]1O[C@@H](n2cc(C)c(=O)[nH]c2=O)C[C@@H]1N=[N+]=[N-]
**Result** 5.73

----------
- Test system: Human alphaherpesvirus 1
- assay-explanation: Antiviral activity against acyclovir-sensitive HSV1 K161 isolate replication in african green monkey Vero cells by plaque reduction assay
- Assay type: functional, organism-based
- experimental-setup: Human alphaherpesvirus 1, Vero
Reported pIC50 values follow for various compounds
To interpret pIC50, take it as minus log10 of a concentration measured in moles per litre.

compound: CCCCCCCCCCCCCCCCCCOC[C@H](COP(=O)(O)C(=O)O)OP(=O)(O)OC[C@H]1O[C@@H](n2cc(C)c(=O)[nH]c2=O)C[C@@H]1N=[N+]=[N-]
target-under-test: Human alphaherpesvirus 1
pIC50: 5.64

Kindly review the next compound as well.
**Query** Using known records, supply pIC50 for Nc1nc2c(ncn2COCCO)c(=O)[nH]1 [ACYCLOVIR]
**Result** 6.24
